# Test system: SK-OV-3
# measurement_description: Cytotoxicity against human SKOV3 cells assessed as cell growth inhibition after 24 hrs by MTT assay
# Format: functional, cell-based
# stated_conditions: SK-OV-3, 24 h
property: pIC50
// field semantics: pIC50 = negative decimal log of concentration (mol/L)

Worked cases, pIC50 given:
`Cc1nccc2c3ccc(OCCCCn4c5ccccc5c5ccnc(C(C)C)c54)cc3n(CCCc3ccccc3)c12` has a reported pIC50 of 4.55

`CCn1c2cc(OCCCCCCn3c4ccccc4c4ccnc(C)c43)ccc2c2ccnc(C)c21` has a reported pIC50 of 4.95

`Cc1nccc2c3ccc(OCCCCCCn4c5ccccc5c5ccncc54)cc3n(CCCc3ccccc3)c12` has a reported pIC50 of 4.12

Now for a further compound.
`COc1ccc(-c2nccc3c4ccccc4n(CCCCOc4ccc5c6ccnc(C)c6n(CCCc6ccccc6)c5c4)c23)cc1.Cl` has a reported pIC50 of 5.38
